Could you please report measured TGI for the items listed next?
system: SK-MEL-28 melanoma; experiment: NCI tumour cell line growth inhibition, 48 h

Query :: Name the recorded TGI of the compound listed here: `N#CCc1c(-c2ccccc2)n(S(=O)(=O)c2ccccc2)c2ccccc12`
Result :: > 100 µM

Query :: Please report the measured TGI for `O=c1c2ccc(S(=O)(=O)c3ccc4c(=O)n5c6ccccc6nc5c5cccc3c45)c3cccc(c32)c2nc3ccccc3n12`
Result :: > 100 µM

Query :: Consider the compound `Cc1cccc(Br)[n+]1[O-]` . State its measured TGI.
Result :: > 100 µM

Query :: Tell me its TGI given CC1(c2sccc2Cl)CC(c2sccc2Cl)=C(C#N)C(=C(C#N)C#N)N1 (stereo unspecified) as the entry.
Result :: 34.8 µM

Query :: Identify the reported TGI for the following entry. `NCCSc1cc(O)c2c(c1N)C(=O)c1ccccc1C2=O`
Result :: > 100 µM

Query :: Give TGI for the following compound: C=C(CO)CC(O)c1cc(OC)ccc1OC (stereo unspecified)
Result :: > 100 µM
